Taken from paper PMC12865133.

Biological target: 14-3-3/ChREBP complex (Homo sapiens, UniProt P31946+Q9NP71)
Sequence (P31946 whole entry): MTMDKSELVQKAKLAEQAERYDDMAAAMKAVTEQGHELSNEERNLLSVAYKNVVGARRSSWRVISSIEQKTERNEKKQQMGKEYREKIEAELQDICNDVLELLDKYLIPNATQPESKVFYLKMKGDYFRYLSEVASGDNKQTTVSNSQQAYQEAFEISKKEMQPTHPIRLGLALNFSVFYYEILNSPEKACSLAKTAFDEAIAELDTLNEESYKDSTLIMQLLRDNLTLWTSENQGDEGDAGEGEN
Sequence (Q9NP71 117-142 partner limits assumed): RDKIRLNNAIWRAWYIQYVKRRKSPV
Test: 2D FA titrations fitted to thermodynamic cooperativity model
Details: 2D FA model fit; replicate 2 (ChREBP from 10 μM)
Readout: α
Give a plain numeric answer without units written out.

Form field: reported α of `NCCCC[C@@H](C(N)=O)N1CCCCc2cn(nn2)-c2ccc(cc2)C[C@H](NC(=O)[C@@H](N)COP(=O)(O)O)C(=O)N[C@@H](CO)CC(=O)NCCC(=O)N[C@@H](Cc2ccc([N+](=O)[O-])cc2)C1=O` 41.3

And `NCCCC[C@@H](C(N)=O)N1CCCc2cn(nn2)-c2ccc(cc2)C[C@H](NC(=O)[C@@H](N)COP(=O)(O)O)C(=O)N[C@@H](CO)CC(=O)NCCC(=O)N[C@@H](Cc2ccc([N+](=O)[O-])cc2)C1=O` ? 11

Input `NCCCC[C@@H](C(=O)NCCC(=O)N[C@@H](CCCCNC(=S)Nc1ccc2c(c1)C(=O)OC21c2ccc(O)cc2Oc2cc(O)ccc21)C(N)=O)N1Cc2cn(nn2)-c2ccc(cc2)C[C@H](NC(=O)[C@@H](N)COP(=O)(O)O)C(=O)N[C@@H](CO)CC(=O)NCCC(=O)N[C@@H](Cc2ccc([N+](=O)[O-])cc2)C1=O` 363

Try this compound next: `NCCCC[C@@H](C(=O)NCCC(=O)N[C@@H](CCCCNC(=S)Nc1ccc2c(c1)C(=O)OC21c2ccc(O)cc2Oc2cc(O)ccc21)C(N)=O)N1CCc2cn(nn2)-c2ccc(cc2)C[C@H](NC(=O)[C@@H](N)COP(=O)(O)O)C(=O)N[C@@H](CO)CC(=O)NCCC(=O)N[C@@H](Cc2ccc([N+](=O)[O-])cc2)C1=O` 61

====

Molecular target: 14-3-3/ChREBP complex (Homo sapiens, UniProt P31946+Q9NP71)
Experiment: 2D FA titrations fitted to thermodynamic cooperativity model
Conditions: 2D FA model fit, dimeric 14-3-3 model; replicate 2
Readout: α1
// no unit, no text: just the number

Identify the measured α1 of `NCCCC[C@@H](C(=O)NCCC(=O)N[C@@H](CCCCNC(=S)Nc1ccc2c(c1)C(=O)OC21c2ccc(O)cc2Oc2cc(O)ccc21)C(N)=O)N1CCc2cn(nn2)-c2ccc(cc2)C[C@H](NC(=O)[C@@H](N)COP(=O)(O)O)C(=O)N[C@@H](CO)CC(=O)NCCC(=O)N[C@@H](Cc2ccc([N+](=O)[O-])cc2)C1=O` for 14-3-3/ChREBP complex (Homo sapiens, UniProt P31946+Q9NP71). 8.3

Please give the result for `NCCCC[C@@H](C(N)=O)N1CCCCc2cn(nn2)-c2ccc(cc2)C[C@H](NC(=O)[C@@H](N)COP(=O)(O)O)C(=O)N[C@@H](CO)CC(=O)NCCC(=O)N[C@@H](Cc2ccc([N+](=O)[O-])cc2)C1=O` too. 13.5

What do you get for `NCCCC[C@@H](C(N)=O)N1CCCc2cn(nn2)-c2ccc(cc2)C[C@H](NC(=O)[C@@H](N)COP(=O)(O)O)C(=O)N[C@@H](CO)CC(=O)NCCC(=O)N[C@@H](Cc2ccc([N+](=O)[O-])cc2)C1=O` ? 11

Then `NCCCC[C@@H](C(=O)NCCC(=O)N[C@@H](CCCCNC(=S)Nc1ccc2c(c1)C(=O)OC21c2ccc(O)cc2Oc2cc(O)ccc21)C(N)=O)N1Cc2cn(nn2)-c2ccc(cc2)C[C@H](NC(=O)[C@@H](N)COP(=O)(O)O)C(=O)N[C@@H](CO)CC(=O)NCCC(=O)N[C@@H](Cc2ccc([N+](=O)[O-])cc2)C1=O` ? 85.4
